This listing pairs molecules with measured melting point.

molecule: CCCCc1c(Cl)nc(N)nc1Cl [Substance 28, 2-amino-5-butyl-4,6-dichloropyrimidine]
melting point: 169 to 170 °C

molecule: C#CCc1c(Cl)nc(/N=C/N(C)C)nc1Cl [Substance 18]
melting point: 82 to 83 °C

molecule: CN(C)/C=N/c1nc(Cl)c(-c2ccccc2)c(Cl)n1 [Substance 24]
melting point: 67 to 68 °C

molecule: Cc1c(Cl)nc(N)nc1Cl [Substance 25, 2-amino-4,6-dichloro-5-methylpyrimidine]
melting point: 189 to 190 °C

molecule: CCCCc1c(-c2ccccc2)nc(N)nc1-c1ccccc1 [Substance 45, 2-amino-5-butyl-4,6-diphenylpyrimidine]
melting point: 154 to 155 °C

Lookup result for CCCCc1c(Cl)nc(O)nc1Cl [Substance 65, 5-butyl-4,6-dichloro-2-hydroxypyrimidine] ; measured melting point: 73 to 75 °C

Lookup result for CCC(C)c1c(Cl)nc(NC=O)nc1Cl (centres unmarked) [Substance 54] ; measured melting point: 92 to 93 °C

Lookup result for CCc1c(Cl)nc(N)nc1Cl [Substance 26, 2-amino-4,6-dichloro-5-ethylpyrimidine] ; measured melting point: 183 to 185 °C

====

Test system: production of nitric oxide (NO)
Test: Production of nitric oxide (NO) in cultures of mouse peritoneal cells stimulated with IFN-γ plus LPS (Griess reagent)
Assay type: cell-based, mice
Details: Table 3B; substance 50 μmol·l^−1; IFN-g plus LPS; 24 h
quantity_kind: Production of nitric oxide in % of the controls

smiles_entry: CCCCc1c(-c2ccccc2)nc(N)nc1-c1cccs1
result: 47.57 ± 8.58; n = 6 % of the controls
//
smiles_entry: CCCCc1c(-c2ccccn2)nc(N)nc1-c1cccc2ccccc12
result: 18.45 ± 5.66; n = 6 % of the controls
//
smiles_entry: CCCCc1c(Cl)nc(NCc2ccco2)nc1Cl
result: 83.33 ± 11.72; n = 6 % of the controls
//
smiles_entry: CCCCc1c(-c2cc3ccccc3o2)nc(N)nc1-c1cc2ccccc2o1
result: 67.76 ± 6.80; n = 6 % of the controls
//
smiles_entry: CCCCc1c(-c2ccncc2)nc(N)nc1-c1cccc2ccccc12
result: 58.04 ± 6.68; n = 4 % of the controls
//
smiles_entry: CCCCc1c(-c2ccco2)nc(N)nc1-c1cc2ccccc2o1
result: 35.04 ± 5.71; n = 6 % of the controls
//
smiles_entry: CCCCc1c(-c2ccc(OC)cc2)nc(N)nc1-c1cccs1
result: 69.14 ± 9.10; n = 2 % of the controls
//
smiles_entry: CCCCc1c(-c2ccccc2)nc(N)nc1-c1ccccn1
result: 45.05 ± 3.55; n = 4 % of the controls

Given the molecule `CCCCc1c(-c2ccccc2)nc(N)nc1-c1ccc(OC)cc1` and test system production of nitric oxide (NO), the measured Production of nitric oxide in % of the controls is 55.45 ± 12.92; n = 6 % of the controls

====

This listing pairs compounds with measured melting point.

smiles_entry: Nc1nc(Cl)c(-c2ccccc2)c(Cl)n1
result: 193 to 195 °C

smiles_entry: C#CCc1c(Cl)nc(N)nc1Cl
result: 159 to 161 °C

smiles_entry: [2H]C([2H])([2H])C([2H])([2H])C([2H])([2H])C([2H])([2H])c1c(Cl)nc(N)nc1Cl
result: 170 to 171 °C

Lookup result for `Nc1nc(Cl)c(Cc2ccccc2)c(Cl)n1` ; measured melting point: 196 to 197 °C

Lookup result for `C=C(Cl)Cc1c(Cl)nc(NC=O)nc1Cl` ; measured melting point: 113 to 115 °C

Lookup result for `CCCCc1c(Cl)nc(N)nc1-c1ccccc1` ; measured melting point: 183 to 185 °C

Lookup result for `Cc1c(Cl)nc(NC=O)nc1Cl` ; measured melting point: 123 to 124 °C

Lookup result for `CCCc1c(Cl)nc(/N=C/N(C)C)nc1Cl` ; measured melting point: 76 to 78 °C

Lookup result for `CC(C)c1c(Cl)nc(NC=O)nc1Cl` ; measured melting point: 95 to 96 °C
